target.desc: UniProt P22303
assay.procedure: Dissociation constant for acetylcholinesterase
Quick rule for you: Ks under 0.4 µM gets MET, anything else gets NOT MET.

>>> class_name("CCCCNC(=O)OCCCCCCCCO")
"NOT MET"
>>> class_name("CCCCNC(=O)OCCCCCCCCCCCCO")
"NOT MET"
>>> class_name("CCCCNC(=O)OCCCCCOC(=O)NCCCC")
"NOT MET"
>>> class_name("CCCCNC(=O)OCCOC(=O)NCCCC")
"NOT MET"
>>> class_name("CCCCNC(=O)OCCCCCCCCCCCCCCOC(=O)NCCCC")
"MET"
>>> class_name("CCCCNC(=O)OCCCCCCCCCCCCOC(=O)NCCCC")
"MET"

* * *

Reported Ki values are given for each entry in this list.
target.desc: Acetylcholinesterase (Homo sapiens)
property: Ki

>>> meas_value("CCCCNC(=O)OCCCCCO")
"1400 nM"
>>> meas_value("CCCCNC(=O)OCCCCCCCCCCCCCCCCOC(=O)NCCCC")
"170 nM"
>>> meas_value("CCCCNC(=O)OCCCCCCCCCCCCCCO")
"200 nM"
>>> meas_value("CCCCNC(=O)OCCCCCCCCCCCCOC(=O)NCCCC")
"160 nM"
>>> meas_value("CCCCNC(=O)OCCOC(=O)NCCCC")
"360 nM"
>>> meas_value("CCCCNC(=O)OCCCCCCCCOC(=O)NCCCC")
"150 nM"
>>> meas_value("CCCCNC(=O)OCCCCCCCCCCO")
"200 nM"
>>> meas_value("CCCCNC(=O)OCCCCCCCCO")
"360 nM"
>>> meas_value("CCCCNC(=O)OCCCCCCCCCCCCCCOC(=O)NCCCC")
"160 nM"
>>> meas_value("CCCCNC(=O)OCCCCCCCCCCOC(=O)NCCCC")
"160 nM"
>>> meas_value("CCCCNC(=O)OCCCCCCCCCCCCO")
"300 nM"
>>> meas_value("CCCCNC(=O)OCCCCCOC(=O)NCCCC")
"250 nM"
>>> meas_value("CCCCNC(=O)OCCCCCCCCCCCCCCCCO")
"130 nM"

* * *

target.desc: Acetylcholinesterase (Homo sapiens, UniProt P22303)
Sequence (P22303 whole entry): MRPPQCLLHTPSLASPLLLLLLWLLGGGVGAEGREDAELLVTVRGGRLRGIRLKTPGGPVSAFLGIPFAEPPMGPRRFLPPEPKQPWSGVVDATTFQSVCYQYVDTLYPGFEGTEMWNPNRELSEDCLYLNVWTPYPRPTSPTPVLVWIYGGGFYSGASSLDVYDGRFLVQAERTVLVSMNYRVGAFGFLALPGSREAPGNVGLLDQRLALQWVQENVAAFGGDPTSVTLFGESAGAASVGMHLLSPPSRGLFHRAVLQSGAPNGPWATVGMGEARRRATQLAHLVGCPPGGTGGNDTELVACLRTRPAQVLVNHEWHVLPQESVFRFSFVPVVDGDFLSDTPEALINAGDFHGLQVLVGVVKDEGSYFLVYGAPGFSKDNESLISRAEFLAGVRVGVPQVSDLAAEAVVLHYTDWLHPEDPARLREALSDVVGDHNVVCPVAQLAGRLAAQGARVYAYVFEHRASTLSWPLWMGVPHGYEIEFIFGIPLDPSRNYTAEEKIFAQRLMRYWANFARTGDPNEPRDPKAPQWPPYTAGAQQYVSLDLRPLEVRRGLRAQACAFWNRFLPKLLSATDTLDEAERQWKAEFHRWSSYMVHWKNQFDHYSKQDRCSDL
assay.procedure: Dissociation constant for acetylcholinesterase
Returns fulfilled if the recorded Ks is greater than or equal to 0.4 µM, and not fulfilled otherwise.

>>> class_name("CCCCNC(=O)OCCCCCCCCCCCCCCCCO")
"not fulfilled"
>>> class_name("CCCCNC(=O)OCCCCCCCCCCO")
"fulfilled"
>>> class_name("CCCCNC(=O)OCCCCCCCCCCCCCCO")
"fulfilled"
>>> class_name("CCCCNC(=O)OCCO")
"fulfilled"
>>> class_name("CCCCNC(=O)OCCCCCCCCCCCCCCCCOC(=O)NCCCC")
"not fulfilled"
>>> class_name("CCCCNC(=O)OCCCCCCCCCCOC(=O)NCCCC")
"not fulfilled"
>>> class_name("CCCCNC(=O)OCCCCCO")
"fulfilled"

* * *

target.desc: Acetylcholinesterase (Homo sapiens, UniProt P22303)
assay.procedure: Ratio of k2/k-2 for acetylcholinesterase
Reported Ratio values are given for each entry in this list.
property: Ratio

>>> meas_value("CCCCNC(=O)OCCCCCCCCCCO")
2.5
>>> meas_value("CCCCNC(=O)OCCCCCCCCCCCCCCCCO")
2
>>> meas_value("CCCCNC(=O)OCCCCCOC(=O)NCCCC")
5.5
>>> meas_value("CCCCNC(=O)OCCCCCCCCCCCCOC(=O)NCCCC")
2.2
>>> meas_value("CCCCNC(=O)OCCOC(=O)NCCCC")
8
>>> meas_value("CCCCNC(=O)OCCCCCCCCO")
2.4
>>> meas_value("CCCCNC(=O)OCCCCCCCCCCCCCCO")
1.3
>>> meas_value("CCCCNC(=O)OCCCCCCCCCCCCCCCCOC(=O)NCCCC")
2
>>> meas_value("CCCCNC(=O)OCCCCCCCCCCOC(=O)NCCCC")
2.3
>>> meas_value("CCCCNC(=O)OCCCCCCCCCCCCCCOC(=O)NCCCC")
2.3
>>> meas_value("CCCCNC(=O)OCCCCCCCCOC(=O)NCCCC")
2.6
>>> meas_value("CCCCNC(=O)OCCCCCCCCCCCCO")
2
